Assay: Selectivity index, ratio of IC50 for cytotoxicity against human hTERT-HME1 cells to IC50 for cytotoxicity against human MCF7 cells
Assay type: toxicity, cell-based
Conditions: hTERT-HME1 cells and MCF7 cells, read-out: Ratio IC50
readout-label: selectivity ratio

mol-smiles | test-result
O=C(Nc1ccc(OS(=O)(=O)c2ccc(F)cc2)cc1)C12CC3CC(CC(C3)C1)C2 | 84.7

====

Catalogue of IC50 readings, one per entry.
Molecular target: Ectonucleotide pyrophosphatase/phosphodiesterase family member 1 (Homo sapiens, UniProt P22413)
Sequence (P22413 whole entry): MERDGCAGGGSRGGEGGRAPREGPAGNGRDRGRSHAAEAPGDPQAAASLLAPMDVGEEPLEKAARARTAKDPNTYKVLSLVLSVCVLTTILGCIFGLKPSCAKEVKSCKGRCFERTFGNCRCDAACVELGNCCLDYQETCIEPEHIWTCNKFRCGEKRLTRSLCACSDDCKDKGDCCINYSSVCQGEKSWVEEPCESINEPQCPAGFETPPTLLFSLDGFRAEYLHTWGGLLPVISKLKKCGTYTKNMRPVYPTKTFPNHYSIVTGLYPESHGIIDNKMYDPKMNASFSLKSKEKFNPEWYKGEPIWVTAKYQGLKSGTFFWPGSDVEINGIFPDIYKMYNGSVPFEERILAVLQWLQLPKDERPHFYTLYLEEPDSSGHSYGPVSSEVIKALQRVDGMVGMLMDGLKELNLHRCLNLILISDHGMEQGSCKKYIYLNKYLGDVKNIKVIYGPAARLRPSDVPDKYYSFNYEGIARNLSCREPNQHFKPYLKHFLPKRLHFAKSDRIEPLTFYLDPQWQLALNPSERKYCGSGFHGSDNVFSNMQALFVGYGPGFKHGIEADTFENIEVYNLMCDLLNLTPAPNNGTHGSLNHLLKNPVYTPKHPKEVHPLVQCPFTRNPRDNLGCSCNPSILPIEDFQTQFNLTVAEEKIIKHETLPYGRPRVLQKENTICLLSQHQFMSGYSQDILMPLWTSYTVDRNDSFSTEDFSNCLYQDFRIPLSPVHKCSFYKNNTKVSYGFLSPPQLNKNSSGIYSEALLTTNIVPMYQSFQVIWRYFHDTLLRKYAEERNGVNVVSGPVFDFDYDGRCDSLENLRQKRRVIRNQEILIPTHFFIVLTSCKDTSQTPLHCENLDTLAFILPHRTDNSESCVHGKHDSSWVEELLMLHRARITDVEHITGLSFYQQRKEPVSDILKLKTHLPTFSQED
Assay: Inhibition of human NPP1 expressed in COS-7 cells using pNP-TMP as substrate preincubated for 10 mins followed by substrate addition and measured after 35 mins by microplate reader analysis
readout-label: IC50 (nM)

mol-smiles | test-result
O=C(Nc1ccc(OS(=O)(=O)c2ccc(F)cc2)cc1)C12CC3CC(CC(C3)C1)C2 | 1130
O=C(Nc1ccc(OS(=O)(=O)c2ccccc2)cc1)C12CC3CC(CC(C3)C1)C2 | 1360

====

Catalogue of IC50 readings, one per entry.
System: MDA-MB-468
Test: Cytotoxicity against human MDA-MB-468 cells assessed as cell growth inhibition
Type: functional, cell-based

mol-smiles | target-entity | IC50 (µM)
O=C(Nc1ccc(OS(=O)(=O)c2ccc(F)cc2)cc1)C12CC3CC(CC(C3)C1)C2 | MDA-MB-468 | 1.01
O=C(Nc1ccc(OS(=O)(=O)c2ccccc2)cc1)C12CC3CC(CC(C3)C1)C2 | MDA-MB-468 | 3.8

====

Tested on: SF-539
Assay: Cytotoxicity against human SF-539 cells assessed as cell growth inhibition
Assay type: functional, cell-based
pIC50: −log10 of the molar value.
readout-label: pIC50

mol-smiles | readout-label | test-result
O=C(Nc1ccc(OS(=O)(=O)c2ccc(F)cc2)cc1)C12CC3CC(CC(C3)C1)C2 | pIC50 | 6.12
O=C(Nc1ccc(OS(=O)(=O)c2ccccc2)cc1)C12CC3CC(CC(C3)C1)C2 | pIC50 | 6.02
O=c1[nH]cc(F)c(=O)[nH]1 | pIC50 | 7.22

====

Test system: ACHN
Assay: Cytotoxicity against human ACHN cells assessed as cell growth inhibition
Assay type: functional, cell-based
Catalogue of IC50 readings, one per entry.
readout-label: IC50

molecule | test-result
O=C(Nc1ccc(OS(=O)(=O)c2ccc(F)cc2)cc1)C12CC3CC(CC(C3)C1)C2 | 15.7 µM
O=c1[nH]cc(F)c(=O)[nH]1 [FLUOROURACIL] | 0.27 µM
O=C(Nc1ccc(OS(=O)(=O)c2ccccc2)cc1)C12CC3CC(CC(C3)C1)C2 | > 100 µM

====

System: NCI-H226
Assay: Cytotoxicity against human NCI-H226 cells assessed as cell growth inhibition
Assay type: functional, cell-based
pIC50: −log10 of the molar value.
Catalogue of pIC50 readings, one per entry.
readout-label: pIC50

mol-smiles | target-entity | test-result
O=C(Nc1ccc(OS(=O)(=O)c2ccccc2)cc1)C12CC3CC(CC(C3)C1)C2 | NCI-H226 | 4.56
O=c1[nH]cc(F)c(=O)[nH]1 | NCI-H226 | 4.26
O=C(Nc1ccc(OS(=O)(=O)c2ccc(F)cc2)cc1)C12CC3CC(CC(C3)C1)C2 | NCI-H226 | 4.72

====

Test system: NCI-H460
Assay: Cytotoxicity against human NCI-H460 cells assessed as cell growth inhibition
Assay type: functional, cell-based
Catalogue of IC50 readings, one per entry.

mol-smiles | IC50 / µM
O=c1[nH]cc(F)c(=O)[nH]1 | 0.05
O=C(Nc1ccc(OS(=O)(=O)c2ccc(F)cc2)cc1)C12CC3CC(CC(C3)C1)C2 | 2.3
O=C(Nc1ccc(OS(=O)(=O)c2ccccc2)cc1)C12CC3CC(CC(C3)C1)C2 | 6.1
